# reported melting point; entries follow
Assay metric: melting point

>>> df
                                  structure       observed
0  Cc1oc(-c2ccccc2)nc1COc1nn(Cc2ccc(Oc3ccccc3)cc2)cc1C(=O)O  222 to 223 °C
1  O=C(O)CCc1cn(Cc2ccc(OCc3ccccc3)cc2)nc1-c1ccccc1  147 to 148 °C
2  O=C(O)CCc1cn(Cc2ccc(OCc3ccc(-c4ccccc4)cn3)cc2)nc1-c1ccc(F)cc1  162 to 163 °C
3  COc1cc(Cn2cc(CCC(=O)O)c(-c3ccccc3)c2)cc(OCc2csc(-c3cnccn3)n2)c1  111 to 112 °C
4  CCOC(=O)CCc1cn(Cc2cc(OCc3nc(-c4ccccc4)oc3C)no2)nc1OCC    82 to 83 °C
5  CCOc1nn(Cc2ccc(OCc3ccc(-c4ccccc4)cn3)cc2)cc1CCC(=O)O  127 to 128 °C
6  Cc1oc(-c2ccco2)nc1COc1ccc(COc2nn(Cc3ccc(OCc4nc(-c5ccco5)oc4C)cc3)cc2C(=O)O)cc1  144 to 145 °C
7  O=C(O)CCc1cn(Cc2cc(OCc3csc(-c4ccccc4)n3)cc(OCc3csc(-c4ccccc4)n3)c2)cc1-c1ccccc1    78 to 79 °C

---

- System name: PPARγ-RXRα heterodimer (Homo sapiens, UniProt P37231)
- Construct: expressed in transfected cells; host or cells: CHO-K1
- Sequence (P37231 29-505): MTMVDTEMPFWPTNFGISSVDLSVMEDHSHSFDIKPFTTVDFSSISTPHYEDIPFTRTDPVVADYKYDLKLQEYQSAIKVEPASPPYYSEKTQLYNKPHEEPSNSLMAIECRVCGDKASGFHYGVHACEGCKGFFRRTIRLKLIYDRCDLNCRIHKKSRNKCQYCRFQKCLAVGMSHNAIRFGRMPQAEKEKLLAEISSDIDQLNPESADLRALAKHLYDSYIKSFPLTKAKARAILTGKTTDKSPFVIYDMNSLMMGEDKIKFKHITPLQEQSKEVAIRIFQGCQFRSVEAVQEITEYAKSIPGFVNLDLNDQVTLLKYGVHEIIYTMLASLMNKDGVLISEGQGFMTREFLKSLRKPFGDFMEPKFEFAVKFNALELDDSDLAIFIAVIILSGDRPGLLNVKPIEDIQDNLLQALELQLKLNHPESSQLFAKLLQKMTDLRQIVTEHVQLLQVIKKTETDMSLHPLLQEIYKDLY
- Sequence (P19793 whole entry partner): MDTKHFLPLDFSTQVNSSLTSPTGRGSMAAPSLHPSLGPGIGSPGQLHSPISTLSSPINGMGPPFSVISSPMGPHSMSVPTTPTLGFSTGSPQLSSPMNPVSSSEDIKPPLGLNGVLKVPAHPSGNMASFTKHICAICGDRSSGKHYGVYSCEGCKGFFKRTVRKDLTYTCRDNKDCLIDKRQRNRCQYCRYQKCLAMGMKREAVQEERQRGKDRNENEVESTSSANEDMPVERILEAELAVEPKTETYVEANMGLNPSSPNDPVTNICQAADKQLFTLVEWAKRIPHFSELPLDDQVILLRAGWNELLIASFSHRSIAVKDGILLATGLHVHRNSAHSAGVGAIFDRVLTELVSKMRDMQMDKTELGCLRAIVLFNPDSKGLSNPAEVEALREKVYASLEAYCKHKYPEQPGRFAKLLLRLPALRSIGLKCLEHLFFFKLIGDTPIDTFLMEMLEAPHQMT
- Test name: PPARγ-RXRα heterodimer ligand activity (luciferase reporter, PPARγ:RXRα:4ERPP/CHO-K1 cells)
- Assay type: cell-based
- Study conditions: 48 hours, concentration for 50% of the maximum fold induction
pEC50: −log10 of the molar value.
Decide by pEC50: equal to or exceeding 9 means yes, less means no.

In [3]: df
Out[3]:
                                  structure  class
0  Cc1oc(-c2ccco2)nc1COc1ccc(Cn2cc(CCC(=O)O)c(-c3ccccc3)c2)cc1     no
1  CCOc1nn(Cc2ccc(OCc3nc(-c4ccccc4)oc3C)nc2)cc1CC(=O)O     no
2  CCCc1nn(Cc2ccc(OCc3nc(-c4ccccc4)oc3C)cc2)cc1CCC(=O)O     no
3  Cc1oc(-c2ccco2)nc1COc1ccc(Cn2cc(CCC(=O)O)c(-c3ccccc3)n2)cc1     no
4  Cc1oc(-c2ccccc2)nc1COc1ccc(Cn2cc(CCC(=O)O)c(-c3ccccc3)c2)cc1     no
5  Cc1oc(-c2ccccc2)nc1COc1ccc(Cn2cc(CCC(=O)O)c(-c3ccccc3)n2)cc1    yes

---

Assay metric: melting point

In [3]: df
Out[3]:
                                    molecule       observed
 0  O=C(O)CCc1cn(Cc2cc(OCc3ccccc3)cc(OCc3csc(-c4cnccn4)n3)c2)cc1-c1ccccc1 [Example 75]  109 to 110 °C
 1  O=C(O)CCc1cn(Cc2ccc(OCc3ccc4ccccc4n3)cc2)nc1-c1ccccc1 [Example 285]  147 to 148 °C
 2  CCOc1cc(Cn2cc(CCC(=O)O)c(-c3ccccc3)c2)cc(OCc2csc(-c3ccccc3)n2)c1 [Example 274]  109 to 110 °C
 3  Cc1oc(-c2ccccc2)nc1COc1ccc(Cn2cc(CC(=O)O)c(-c3ccccc3)n2)cn1 [Example 308]  144 to 145 °C
 4  CCOc1nn(Cc2ccc(OCc3nc(-c4ccco4)oc3C)nc2)cc1CC(=O)O [Example 264]  155 to 156 °C
 5  CCOC(=O)c1cn(Cc2ccc(Oc3ccccc3)cc2)nc1OCc1ccc(OCc2nc(-c3ccccc3)oc2C)c(OC)c1 [Example 324]  127 to 128 °C
 6  Cc1oc(-c2ccco2)nc1COc1ccc(Cn2cc(CCC(=O)O)c(-c3ccccc3)c2)cc1 [Example 8]    86 to 87 °C
 7  Cc1oc(-c2ccco2)nc1COc1ccc(Cn2cc(CCC(=O)O)c(-c3ccc(C(F)(F)F)cc3)n2)cc1 [Example 103]    92 to 93 °C
 8  O=C(O)CCc1cn(Cc2ccc(OCc3csc(-c4ccccc4)n3)cc2)nc1-c1ccccc1 [Example 304]  132 to 133 °C
 9  Cc1oc(-c2ccccc2)nc1COc1ccc(Cn2cc(C(=O)O)c(C(C)C)n2)cc1 [Example 106]  194 to 195 °C
10  O=C(O)CCc1cn(Cc2ccc(OCc3ccoc3)cc2)cc1-c1ccccc1 [Example 18]  110 to 111 °C
11  Cc1oc(-c2ccccc2)nc1CCOc1ccc(Cn2cc(CCC(=O)O)c(-c3ccccc3)c2)cc1 [Example 14]  147 to 148 °C
12  O=C(O)CCc1cn(Cc2ccc(OCc3ccccn3)cc2)cc1-c1ccccc1 [Example 11]  109 to 110 °C
13  CCOC(=O)CCc1cn(Cc2cccnc2OCc2csc(-c3ccccc3)n2)nc1-c1ccccc1 [Example 299]    88 to 89 °C
14  O=C(O)CCc1cn(Cc2ccc(OCc3noc(-c4ccccc4)n3)cc2)nc1-c1ccccc1 [Example 85]  166 to 167 °C
15  CCOC(=O)c1cn(Cc2ccc(OCc3ccccc3)cc2)nc1-c1ccccc1 [Example 76]  102 to 103 °C
16  Cc1oc(-c2ccncc2)nc1COc1ccc(Cn2cc(CCC(=O)O)c(-c3ccccc3)n2)cc1 [Example 83]  154 to 155 °C
17  O=C(O)c1cn(Cc2ccc(OCc3ccccc3)cc2)nc1-c1ccccc1 [Example 92]  152 to 153 °C
18  O=C(O)CCc1cn(Cc2ccc(OCc3ccccc3)cc2)cc1-c1ccccc1 [Example 10]  130 to 131 °C
19  Cc1oc(-c2ccccc2)nc1COc1ccc(Cn2cc(CCC(=O)O)c(-c3ccccc3)c2)cc1 [Example 7]  124 to 125 °C
20  CCOC(=O)/C=C/c1cn(Cc2ccc3cc(OCc4ccccc4)ccc3c2)cc1-c1ccccc1 [Example 52]  119 to 120 °C
21  COc1ccc(-c2nn(Cc3ccc(OCc4nc(-c5ccccc5)oc4C)cc3)cc2CCC(=O)O)cc1 [Example 102]  137 to 138 °C
22  O=C(O)c1cn(Cc2ccc(OCc3csc(-c4ccccc4)n3)cc2)nc1-c1ccccc1 [Example 94]  119 to 120 °C
23  CCOc1nn(Cc2ccc(OCc3cn4c(Cl)cccc4n3)cc2)cc1CCC(=O)O [Example 225]  153 to 154 °C
24  CCOc1nn(Cc2ccc(OCc3nc(-c4ccccc4)oc3C)cn2)cc1CCC(=O)O [Example 258]  133 to 134 °C
25  Cc1nc(COc2ccc(Cn3cc(CCC(=O)O)c(-c4ccccc4)c3)cc2)cs1 [Example 42]  113 to 114 °C
26  CCOc1nn(Cc2ccc(OCc3cn4c(-c5ccccc5)cccc4n3)cc2)cc1CCC(=O)O [Example 232]  160 to 161 °C
27  Cc1oc(-c2ccccc2)nc1COc1ccc(CCn2cc(CCC(=O)O)c(-c3ccccc3)n2)cc1 [Example 116]    85 to 86 °C
28  O=C(O)CCc1cn(Cc2ccc(OCc3csc(-c4ccco4)n3)cc2)cc1-c1ccccc1 [Example 38]  114 to 115 °C
29  COC(=O)Cc1cn(Cc2ccc(OCc3ccccc3)cc2)nc1-c1ccc(F)cc1 [Example 318]    58 to 59 °C
30  Cc1oc(-c2ccccc2)nc1COc1nn(Cc2ccc(Oc3ccccc3)cc2)cc1/C=C/C(=O)O [Example 333]  210 to 211 °C
31  CCOc1nn(Cc2cncc(OCc3nc(-c4ccccc4)oc3C)c2)cc1CCC(=O)O [Example 213]  133 to 134 °C
